The reported numbers originate from patent US9029508.

# targetOrTestSystem: IGF1R (human, UniProt P08069)
# experimentNotes: ELISA
resultType: pEC50
Note on pEC50: it is the negative log10 of concentration, concentration in mol/L.

query: Item under review: AB011 (antibody, V domains shown) VH: EVQLLESGGGLVQPGGSLRLSCTASGFTFSSYAMNWVRQAPGKGLEWVSAISGSGGTTFYADSVKGRFTISRDNSRTTLYLQMNSLRAEDTAVYYCAKDLGWSDSYYYYYGMDVWGQGTTVTVSS VL: DIQMTQFPSSLSASVGDRVTITCRASQGIRNDLGWYQQKPGKAPKRLIYAASRLHRGVPSRFSGSGSGTEFTLTISSLQPEDFATYYCLQHNSYPCSFGQGTKLEIKR . Reported pEC50?
result: 9.55
